Reported logP values for the following molecules.
- experimentalProtocol: logP by HPLC on reversed-phase column (EEC Directive 79/831 Annex V.A8)
- conditionParameters: HPLC on reversed-phase column (C 18), EEC Directive 79/831 Annex V.A8
// print number alone

Solved entries (count: 8):
| molecule | valueReported |
| --- | --- |
| Cn1nc(C(F)F)c(C(=O)Nc2cccc(Cl)c2SCC(F)(F)F)c1F [compound 39] | 3.73 |
| Cc1ccccc1-c1cccc(NC(=O)c2c(C(F)F)nn(C)c2Cl)c1 [compound 202] | 3.83 |
| Cn1nc(C(F)F)c(C(=S)Nc2ccccc2-c2cc(F)c(F)c(F)c2)c1F [Example 106] | 3.65 |
| Cn1nc(C(F)F)c(C(=O)Nc2ccccc2-c2ccc(Br)cc2Cl)c1Cl [Example 154] | 4.16 |
| CCOCCOc1cc(NC(=O)c2c(C(F)F)nn(C)c2Cl)ccc1C [compound 184] | 3.13 |
| Cn1nc(C(F)F)c(C(=O)Nc2cccc(OC(F)(F)F)c2)c1Cl [Example 181] | 3.25 |
| Cn1nc(C(F)F)c(C(=O)Nc2ccc(F)cc2-c2ccc(C(F)(F)F)cc2)c1F [Example 118] | 3.60 |
| Cn1nc(C(F)F)c(C(=O)Nc2cccc(OCC(F)(F)F)c2)c1F [compound 186] | 2.88 |

Please examine the following record next.
// Cn1nc(C(F)F)c(C(=O)Nc2ccccc2-c2ccc(F)c(F)c2)c1F [Example 90] : logP value = 3.20

###

- experimentalProtocol: logP by HPLC on reversed-phase column (EEC Directive 79/831 Annex V.A8)
- conditionParameters: HPLC on reversed-phase column (C 18), EEC Directive 79/831 Annex V.A8
Output Condition met for records whose logP is lower than 4, Condition not met for records at or above 4.

Look over these answered cases.
| molecule | label |
| --- | --- |
| CC(C)Oc1cccc(NC(=S)c2c(C(F)F)nn(C)c2Cl)c1 | Condition met |
| Cn1nc(C(F)F)c(C(=O)Nc2ccccc2Sc2ccc(Cl)cc2)c1Cl | Condition not met |
| Cn1nc(C(F)F)c(C(=O)Nc2ccccc2-c2ccc(Cl)cc2)c1F | Condition met |
| CC(CC(C)(C)C)c1ccccc1NC(=O)c1c(C(F)F)nn(C)c1Cl (stereo not drawn) | Condition not met |
| CC(C)c1ccccc1NC(=O)c1c(C(F)F)nn(C)c1F | Condition met |
| CCC(CC(C)C)c1ccccc1NC(=O)c1c(C(F)F)nn(C)c1F (stereo not drawn) | Condition not met |

API: query returns whether the molecule falls strictly under 4 in logP. Query: Cn1nc(C(F)F)c(C(=O)Nc2ccccc2-c2ccc(C(F)(F)F)c(F)c2)c1F
Condition met

API: query returns whether the molecule falls strictly under 4 in logP. Query: Cn1nc(C(F)F)c(C(=O)Nc2ccc3c(c2)CCC3)c1Cl
Condition met

API: query returns whether the molecule falls strictly under 4 in logP. Query: CC(C)COc1ccc(-c2ccccc2NC(=O)c2c(C(F)F)nn(C)c2Cl)cc1
Condition not met

###

- experimentalProtocol: logP by HPLC on reversed-phase column (EEC Directive 79/831 Annex V.A8)
- conditionParameters: HPLC on reversed-phase column (C 18), EEC Directive 79/831 Annex V.A8
measurementKind: logP
// print number alone

Solved entries (count: 7):
| itemSmiles | logP |
| --- | --- |
| Cn1nc(C(F)F)c(C(=O)Nc2ccccc2-c2ccc(OC(F)(F)F)cc2)c1Cl | 4.19 |
| C/C(=N\OC(C)(C)C)c1ccc(-c2ccccc2NC(=O)c2c(C(F)F)nn(C)c2F)cc1 | 5.17 |
| Cn1nc(C(F)F)c(C(=O)Nc2cccc(-c3ccc(OC(F)(F)F)cc3)c2)c1F | 4.14 |
| Cn1nc(C(F)F)c(C(=O)Nc2ccc(F)cc2-c2ccc(Cl)c(Cl)c2)c1Cl | 4.04 |
| Cn1nc(C(F)F)c(C(=O)Nc2ccccc2-c2cccc(OC(F)(F)F)c2)c1Cl | 4.11 |
| CC(C)O/N=C/c1ccc(-c2ccccc2NC(=O)c2c(C(F)F)nn(C)c2F)cc1 | 4.31 |
| Cn1nc(C(F)F)c(C(=O)Nc2cccc(-c3ccc(F)c(Cl)c3)c2)c1Cl | 4.11 |

Please examine the following record next.
// Cn1nc(C(F)F)c(C(=O)Nc2ccc3c(c2)OCO3)c1F : logP value = 2.05
